meta.source: ChEMBL document CHEMBL4414663

assay: AUC (0 to infinity) in C57BL/6J mouse at 5 mg/kg, po by UPLC-MS analysis; type: ADME, organism-based; set-up: dose 5 mg/kg, time infinity, route oral; settings: in vivo
Readout type: AUC(0-inf) (ng·h/mL)
Answers are plain numbers, in ng·h/mL.

**Q:** Look up AUC(0-inf) for this molecule: `Cc1c(C(=O)Nc2ccc3ccccc3n2)cnn1-c1ccccc1Br`
**A:** 13200

---

assay: Half life in C57BL/6J mouse at 5 mg/kg, iv by UPLC-MS analysis; assay type: ADME, organism-based; conditions: in vivo
Readout type: half-life (h)
One number for each entry, in h.

**Q:** Look up half-life for this compound: `Cc1c(C(=O)Nc2ccc3ccccc3n2)cnn1-c1ccccc1Br`
**A:** 3.1

---

test: Inhibition of Wnt/beta-Catenin signaling in human SW620 cells incubated for 24 hrs by TCF/LEF dual-luciferase reporter assay; format: cell-based; details: SW-620, 24 h
Readout type: IC50 (pM)
One number for each entry, in pM.

**Q:** Look up IC50 for this compound: `Cc1c(C(=O)Nc2ccc3ccccc3n2)cnn1-c1ccccc1Br`
**A:** 194

---

assay: Cmax in C57BL/6J mouse at 5 mg/kg, po by UPLC-MS analysis; type: ADME, organism-based; parameters: dose 5 mg/kg, route oral; details: in vivo
Readout type: Cmax (ng/mL)
Give bare numbers, in ng/mL.

**Q:** Look up Cmax for this compound: `Cc1c(C(=O)Nc2ccc3ccccc3n2)cnn1-c1ccccc1Br`
**A:** 5200

---

experiment: Oral bioavailability in C57BL/6J mouse at 5 mg/kg by UPLC-MS analysis; format: ADME, organism-based; settings: in vivo
Readout type: bioavailability (%)
Give bare numbers, in %.

**Q:** Look up bioavailability for this compound: `Cc1c(C(=O)Nc2ccc3ccccc3n2)cnn1-c1ccccc1Br`
**A:** 22.9

---

assay: Half life in C57BL/6J mouse at 5 mg/kg, po by UPLC-MS analysis; assay type: ADME, organism-based; details: in vivo
Readout type: half-life (h)
Give bare numbers, in h.

**Q:** Look up half-life for this compound: `Cc1c(C(=O)Nc2ccc3ccccc3n2)cnn1-c1ccccc1Br`
**A:** 2.9

---

tested on: SW480; test: Growth inhibition of human SW480 cells by Cell-titer-fluor reagent based assay; format: functional
Assign a class from recorded GI50; defined classes: lower bin = under 7 µM, middle bin = from 7 µM up to 20 µM, upper bin = 20 µM and over

* Cc1c(C(=O)Nc2ccc3ccccc3n2)cnn1-c1cccc(Cl)c1F | middle bin
* CCc1ccccc1-n1ncc(C(=O)Nc2ccc3ccccc3n2)c1C | middle bin
* Cc1ccc(C)c(-n2ncc(C(=O)Nc3ccc4ccccc4n3)c2C)c1 | upper bin
* Oc1nc(-c2ccc(C(F)(F)F)cc2)nc2c1CSCC2 | upper bin
* Cc1c(C(=O)Nc2ccc3ccccc3n2)cnn1-c1ccccc1F | upper bin

**Q:** Lab note: sort `Cc1cc(/C=C/c2ccc3cc(N(C)C)ccc3[n+]2C)c(C)n1-c1ccccc1` into the matching GI50 band.
**A:** lower bin

**Q:** Now consider `Cc1c(C(=O)Nc2ccc3ccccc3n2)cnn1-c1c(F)cccc1Br` and answer again.
**A:** lower bin

**Q:** Now consider `CC(C)c1c(C(=O)Nc2ccc3ccccc3n2)cnn1-c1ccccc1` and answer again.
**A:** middle bin

**Q:** Now consider `Cc1c(C(=O)Nc2ccc3ccccc3n2)cnn1-c1ccccc1Br` and answer again.
**A:** lower bin

**Q:** Now consider `Cc1c(C(=O)Nc2ccc3ccccc3n2)cnn1-c1ccccc1` and answer again.
**A:** upper bin

---

tested on: SW-620; assay: Growth inhibition of human SW620 cells transfected with lentivrus-encoding shRNA against Axin-1 incubated for 72 hrs by Cell-titer-fluor reagent based assay; type: functional; settings: SW-620, 72 h
Readout type: pIC50
Answers are plain numbers, as −log10 of the molar value.

**Q:** Look up pIC50 for this compound: `Cc1c(C(=O)Nc2ccc3ccccc3n2)cnn1-c1ccccc1Br`
**A:** 7.07

---

assay: AUC (0 to infinity) in C57BL/6J mouse at 5 mg/kg, iv by UPLC-MS analysis; format: ADME, organism-based; parameters: dose 5 mg/kg, route intravenous, time infinity; conditions: in vivo
Readout type: AUC(0-inf) (ng·h/mL)
One number for each entry, in ng·h/mL.

**Q:** Look up AUC(0-inf) for this compound: `Cc1c(C(=O)Nc2ccc3ccccc3n2)cnn1-c1ccccc1Br`
**A:** 57500
